test: AUC (0 to t) in Beagle dog at 10 mg/kg, po measured upto 24 hrs by LC-MS/MS analysis; format: ADME, organism-based, Canis lupus familiaris; design: time < 24 hrs, dose 10 mg/kg, route po; conditions: in vivo
ENDPOINT_LABEL: AUC(0-t) at 24 h

Q) Look at this compound and give its reported AUC(0-t) at 24 h. C[C@H]1CC2(CCN(c3ccc(C(=O)N4CCC(CN5Cc6cc7c(cc6C5)C(=O)N(C5CCC(=O)NC5=O)C7=O)CC4)cc3)CC2)CN1c1ccc(C#N)c(Cl)c1 (stereo partly specified)
A) 15200 ng·h/mL

###

assay: Half life in non human primate at 2 mg/kg, po measured upto 24 hrs by LC-MS/MS analysis; type: ADME, organism-based; conditions: primates, in vivo
ENDPOINT_LABEL: half-life

Q) Look at this compound and give its reported half-life. C[C@H]1CC2(CCN(c3ccc(C(=O)N4CCC(CN5Cc6cc7c(cc6C5)C(=O)N(C5CCC(=O)NC5=O)C7=O)CC4)cc3)CC2)CN1c1ccc(C#N)c(Cl)c1 (stereo partly specified)
A) 577 min

###

assay: Metabolic stability in non human primate liver microsome assessed as half life measured upto 45 mins in presence of NADPH by LC-MS/MS analysis; assay type: ADME; conditions: primates, liver microsomes
ENDPOINT_LABEL: half-life at […]

Q) Look at this compound and give its reported half-life at […]. C[C@H]1CC2(CCN(c3ccc(C(=O)N4CCC(CN5Cc6cc7c(cc6C5)C(=O)N(C5CCC(=O)NC5=O)C7=O)CC4)cc3)CC2)CN1c1ccc(C#N)c(Cl)c1 (stereo partly specified)
A) > 1 h

###

assay: Metabolic stability in non human primate hepatocyte assessed as half life measured upto 120 mins by LC-MS/MS analysis; format: ADME, cell-based; conditions: primates, hepatocytes
ENDPOINT_LABEL: half-life

Q) Look at this compound and give its reported half-life. C[C@H]1CC2(CCN(c3ccc(C(=O)N4CCC(CN5Cc6cc7c(cc6C5)C(=O)N(C5CCC(=O)NC5=O)C7=O)CC4)cc3)CC2)CN1c1ccc(C#N)c(Cl)c1 (stereo partly specified)
A) > 2 h

###

I'd appreciate it if you could supply AUC(0-t) at 24 h values for the items below.
experiment: in vivo; details: Sprague-Dawley, rat, po, 5 mg/kg
One number for each entry, in ng·h/mL.

Here's what some known entries look like.
MOLECULE	AUC(0-t) at 24 h [ng·h/mL]
C[C@H]1CC2(CCN(c3ccc(C(=O)N4CCC(N5Cc6cc7c(cc6C5)C(=O)N(C5CCC(=O)NC5=O)C7=O)CC4)cc3)CC2)CN1c1ccc(C#N)c(Cl)c1 (some centres undefined)	4280
COC1(CN2Cc3cc4c(cc3C2)C(=O)N(C2CCC(=O)NC2=O)C4=O)CCN(C(=O)c2ccc(N3CCC4(CC3)C[C@H](C)N(c3ccc(C#N)c(Cl)c3)C4)cc2)CC1 (some centres undefined)	1320
C[C@H]1CC2(CCN(c3ccc(C(=O)N4CCC(C)(CN5Cc6cc7c(cc6C5)C(=O)N(C5CCC(=O)NC5=O)C7=O)CC4)cc3)CC2)CN1c1ccc(C#N)c(Cl)c1 (some centres undefined)	5730

Please examine the following record next.
Q) Look at this molecule and give its reported AUC(0-t) at 24 h. C[C@H]1CC2(CCN(c3ccc(C(=O)N4CCC(CN5Cc6cc7c(cc6C5)C(=O)N(C5CCC(=O)NC5=O)C7=O)CC4)cc3)CC2)CN1c1ccc(C#N)c(Cl)c1 (some centres undefined)
A) 6020

###

biological target: Protein cereblon/Androgen receptor (Homo sapiens, UniProt P10275+Q96SW2, T878A); assay: PROTAC activity at AR T878A mutant/CRBN in human LNCaP cells assessed as induction of androgen receptor degradation measured at 24 hrs by Western blot analysis; type: cell-based
I'd appreciate it if you could supply log10 DC50 values for the items below.
Note: values are log10 of DC50 expressed in nM.

Here's what some known entries look like.
COMPOUND	log10 DC50
C[C@H]1CC2(CCN(c3ccc(C(=O)N4CCC(CN5Cc6cc7c(cc6C5)C(=O)N(C5CCC(=O)NC5=O)C7=O)CC4)cn3)CC2)CN1c1ccc(C#N)c(Cl)c1 (stereo partly specified)	0.34
C[C@H]1CC2(CCN(c3ccc(C(=O)N4CC(N5Cc6cc7c(cc6C5)C(=O)N(C5CCC(=O)NC5=O)C7=O)C4)cc3)CC2)CN1c1ccc(C#N)c(Cl)c1 (stereo partly specified)	0.70
C[C@H]1CC2(CCN(c3ccc(C(=O)N4CCC(F)(CN5Cc6cc7c(cc6C5)C(=O)N(C5CCC(=O)NC5=O)C7=O)CC4)cc3)CC2)CN1c1ccc(C#N)c(Cl)c1 (stereo partly specified)	0.57

Could I get log10 DC50 for every one of these entries?
1. C[C@H]1CC2(CCN(c3ccc(C(=O)N4CCC(CN5Cc6cc7c(cc6C5)C(=O)N(C5CCC(=O)NC5=O)C7=O)CC4)cc3)CC2)CN1c1ccc(C#N)c(Cl)c1 (stereo partly specified)
2. C[C@H]1CC2(CCN(c3ccc(C(=O)N4CCC(C)(CN5Cc6cc7c(cc6C5)C(=O)N(C5CCC(=O)NC5=O)C7=O)CC4)cc3)CC2)CN1c1ccc(C#N)c(Cl)c1 (stereo partly specified)
3. C[C@H]1CC2(CCN(c3ccc(C(=O)N4CCC(CN5Cc6cc7c(cc6C5)C(=O)N(C5CCC(=O)NC5=O)C7=O)CC4)nn3)CC2)CN1c1ccc(C#N)c(Cl)c1 (stereo partly specified)

A)
[0.04, 0.95, -0.30]

###

assay: Metabolic stability in dog liver microsome assessed as parent compound remaining measured at 120 mins in presence of NADPH by LC-MS/MS analysis; format: ADME, Canis lupus familiaris; conditions: liver microsomes, read-out: Stability
ENDPOINT_LABEL: remaining at 2 h
Please format your answer as a value with the unit trailing.

Q) Look at this molecule and give its reported remaining at 2 h. C[C@H]1CC2(CCN(c3ccc(C(=O)N4CCC(CN5Cc6cc7c(cc6C5)C(=O)N(C5CCC(=O)NC5=O)C7=O)CC4)cc3)CC2)CN1c1ccc(C#N)c(Cl)c1 (stereo partly specified)
A) 87%

###

assay: Oral bioavailability in Beagle dog at 10 mg/kg measured upto 24 hrs by LC-MS/MS analysis; format: ADME, organism-based, Canis lupus familiaris; details: in vivo
ENDPOINT_LABEL: bioavailability
Please format your answer as a value with the unit trailing.

Q) Look at this molecule and give its reported bioavailability. C[C@H]1CC2(CCN(c3ccc(C(=O)N4CCC(CN5Cc6cc7c(cc6C5)C(=O)N(C5CCC(=O)NC5=O)C7=O)CC4)cc3)CC2)CN1c1ccc(C#N)c(Cl)c1 (stereo partly specified)
A) 31%

###

assay: Cmax in ICR mouse at 5 mg/kg, po measured upto 24 hrs by LC-MS/MS analysis; assay type: ADME, organism-based; parameters: time < 24 hrs, dose 5 mg/kg, route po; details: in vivo
ENDPOINT_LABEL: Cmax (ng/mL)
Answers are plain numbers, in ng/mL.

Q) Look at this molecule and give its reported Cmax. C[C@H]1CC2(CCN(c3ccc(C(=O)N4CCC(CN5Cc6cc7c(cc6C5)C(=O)N(C5CCC(=O)NC5=O)C7=O)CC4)cc3)CC2)CN1c1ccc(C#N)c(Cl)c1 (stereo partly specified)
A) 9120

###

I'd appreciate it if you could supply AUC(0-t) at 24 h values for the items below.
test: in vivo; conditions: Sprague-Dawley, rat, po, 5 mg/kg
Numbers only, in ng·h/mL.

COMPOUND	AUC(0-t) at 24 h [ng·h/mL]
C[C@H]1CC2(CCN(c3ccc(C(=O)N4CC(CN5Cc6cc7c(cc6C5)C(=O)N(C5CCC(=O)NC5=O)C7=O)C4)cc3)CC2)CN1c1ccc(C#N)c(Cl)c1 (stereo partly drawn)	310

Could I get AUC(0-t) at 24 h for every one of these entries?
1. C[C@H]1CC2(CCN(c3ccc(C(=O)N4CCC(F)(CN5Cc6cc7c(cc6C5)C(=O)N(C5CCC(=O)NC5=O)C7=O)CC4)cc3)CC2)CN1c1ccc(C#N)c(Cl)c1 (stereo partly drawn)
2. C[C@H]1CC2(CCN(c3ccc(C(=O)N4CC(N5Cc6cc7c(cc6C5)C(=O)N(C5CCC(=O)NC5=O)C7=O)C4)cc3)CC2)CN1c1ccc(C#N)c(Cl)c1 (stereo partly drawn)

A)
[1820, 423]

###

assay: Metabolic stability in rat plasma assessed as half life measured after 2 hrs by LC-MS/MS analysis; assay type: ADME, cell-free
ENDPOINT_LABEL: half-life

Q) Look at this molecule and give its reported half-life. C[C@H]1CC2(CCN(c3ccc(C(=O)N4CCC(CN5Cc6cc7c(cc6C5)C(=O)N(C5CCC(=O)NC5=O)C7=O)CC4)cc3)CC2)CN1c1ccc(C#N)c(Cl)c1 (stereo partly specified)
A) > 120 min

###

experiment: AUC (0 to t) in non human primate at 1 mg/kg, iv measured upto 24 hrs by LC-MS/MS analysis; assay type: ADME, organism-based; parameters: dose 1 mg/kg, time < 24 hrs, route iv; settings: primates, in vivo
ENDPOINT_LABEL: AUC(0-t) at 24 h (ng·h/mL)
Answers are plain numbers, in ng·h/mL.

Q) Look at this compound and give its reported AUC(0-t) at 24 h. C[C@H]1CC2(CCN(c3ccc(C(=O)N4CCC(CN5Cc6cc7c(cc6C5)C(=O)N(C5CCC(=O)NC5=O)C7=O)CC4)cc3)CC2)CN1c1ccc(C#N)c(Cl)c1 (stereo partly specified)
A) 5170
